Known pIC50 of a selection of molecules
- Tested on: SF-126;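 note: growth inhibition of human SF126 cells, read out with a cell viability assay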
- Test: cells
- Type: functional, cell-based
- Test Conditions: Homo sapiens
- Description: SANGER: Inhibition of human SF126 cell growth in a cell viability assay.
pIC50: −log10 of the molar value.
Experimental Readout: pIC50

Fc1cc(-c2cc[nH]/c(=N/c3ccc(-n4cnc(N5CCOCC5)n4)cc3)n2)cc(N2CCOCC2)c1 = 5.50
CC[C@@]1(O)C(=O)OCc2c1cc1n(c2=O)Cc2cc3ccccc3nc2-1 = 8.55
Cn1c(=O)n(-c2ccc(C(C)(C)C#N)cc2)c2c3cc(-c4cnc5ccccc5c4)ccc3ncc21 = 7.71
Cc1n[nH]c2ccc(-c3cncc(OC[C@@H](N)Cc4c[nH]c5ccccc45)c3)cc12 = 6.51

* * *

- System: GB-1;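 note: growth of GB-1 cells judged by a viability assay, IC50 marks the concentration inhibiting growth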
- Test: cells
- Assay type: functional, cell-based
- Test Conditions: Homo sapiens
- Description: SANGER: Inhibition of human GB-1 cell growth in a cell viability assay.
Experimental Readout: IC50 (nM)

CC[C@]1(O)C[C@@H]2CN(CCc3c([nH]c4ccccc34)[C@@](C(=O)OC)(c3cc4c(cc3OC)N(C)[C@H]3[C@@](O)(C(=O)OC)[C@H](OC(C)=O)[C@]5(CC)C=CCN6CC[C@]43[C@@H]65)C2)C1 = 39.8

* * *

Recorded pIC50 values for a group of compounds are listed next.
- Test system: AU565;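 note: cell viability assay measuring growth inhibition of human AU565 cells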
- Test: cells
- Format: functional, cell-based
- Test Conditions: Homo sapiens
- Description: SANGER: Inhibition of human AU565 cell growth in a cell viability assay.
pIC50: −log10 of the molar value.
Experimental Readout: pIC50

O=c1[nH]c2ccccc2n1C1CCN(Cc2ccc(-c3nc4cc5[nH]cnc5cc4nc3-c3ccccc3)cc2)CC1 = 5.91
C[C@]12O[C@H](C[C@]1(O)CO)n1c3ccccc3c3c4c(c5c6ccccc6n2c5c31)CNC4=O = 5.78
NC(=O)c1ncn([C@@H]2O[C@H](COP(=O)(O)O)[C@@H](O)[C@H]2O)c1N = 3.45
CC[C@@]1(O)C(=O)OCc2c1cc1n(c2=O)Cc2cc3ccccc3nc2-1 = 8.43
CCNC(=O)c1noc(-c2cc(C(C)C)c(O)cc2O)c1-c1ccc(CN2CCOCC2)cc1 = 6.93

* * *

- System: NCI-H510A
- Test: cells
- Assay type: functional, cell-based
- Test Conditions: Homo sapiens
- Description: SANGER: Inhibition of human NCI-H510A cell growth in a cell viability assay.
Experimental Readout: IC50

C[C@]1(c2nc3c(C(N)=O)cccc3[nH]2)CCCN1 [VELIPARIB] = > 5000 nM
CO[C@@]12[C@H](COC(N)=O)C3=C(C(=O)C(C)=C(N)C3=O)N1C[C@@H]1N[C@@H]12 [MITOMYCIN] = 403 nM
Fc1cc(-c2cc[nH]/c(=N/c3ccc(-n4cnc(N5CCOCC5)n4)cc3)n2)cc(N2CCOCC2)c1 = > 5120 nM
CC[C@]1(O)C[C@@H]2CN(CCc3c([nH]c4ccccc34)[C@@](C(=O)OC)(c3cc4c(cc3OC)N(C)[C@H]3[C@@](O)(C(=O)OC)[C@H](OC(C)=O)[C@]5(CC)C=CCN6CC[C@]43[C@@H]65)C2)C1 [VINBLASTINE] = 2.75 nM
N#C/C(=C1/Nc2ccccc2S1)c1ccnc(NCCc2cccnc2)n1 = > 8000 nM
CCNc1cc(N[C@H]2CC[C@@H](O)CC2)nc(Nc2ccc3c(ccn3Cc3ccccc3)c2)n1 = > 5120 nM
CC[C@@]1(O)C(=O)OCc2c1cc1n(c2=O)Cc2cc3ccccc3nc2-1 [CAMPTOTHECIN] = 1.7 nM
